The measurements presented in this section are drawn from patent US20230212289A1.

# system: CD3 (antigen of the binding affinity table of Example 1) (UniProt P07766)
# protocol_description: kinetic fit with two-state parameters; method not given
quantity_kind: ka2 (s⁻¹)
Reply numerically in s⁻¹, unit not repeated.

[[record]]
binder = "H3L5 (antibody, V domains shown) VH: QVQLVQSGAEVKKPGASVKMSCKASGYTFTRYTMHWVRQAPGQGLEWIGYINPSRGYTNYNQKFKDRATMTTDKSISTAYMELSRLRSDDTAVYYCARYYDDHYSLDYWGQGTTLTVSS VL: DIQMTQSPSSLSASVGDRVTITCSASSSVSYMNWYQQKPGKAPKRWIYDTSKLASGVPSRFSGSGSGTDFTLTISSLQPEDFATYYCQQWSSNPFTFGSGTKLEINR"
result_unit = "s⁻¹"
data_value = 0.00709


Would you kindly share the measured ka2 for H3L4 (antibody, V domains shown) VH: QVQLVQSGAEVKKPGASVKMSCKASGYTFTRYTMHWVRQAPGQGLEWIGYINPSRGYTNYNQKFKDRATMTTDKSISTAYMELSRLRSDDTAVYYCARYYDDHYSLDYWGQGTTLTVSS VL: DIQLTQSPSSLSASVGDRVTITCSASSSVSYMNWYQQKPGKAPKLLIYDTSKLASGVPSRFSGSGSGTDFTLTISSMQPEDFATYYCQQWSSNPFTFGSGTKLEINR ?
0.0213

Can you share its ka2? I mean this binder: H4L6 (antibody, V domains shown) VH: QVQLQQSGAEVKKPGASVKMSCKASGYTFTRYTMHWVRQAPGQGLEWIGYINPSRGYTNYNQKFKDRVTLTTDTSISTAYMELSRLRSDDTAVYYCARYYDDHYSLDYWGQGTTLTVSS VL: DIQMTQSPSSLSASVGDRVTITCSASSSVSYMNWYQQKPGKAPKLWIYDTSKLASGVPSRFSGSGSGTDYTLTISSLQPEDFATYYCQQWSSNPFTFGSGTKLEINR
0.00534
